# Target entity: AKT (Homo sapiens, UniProt P31749)
# Sequence (P31749 whole entry): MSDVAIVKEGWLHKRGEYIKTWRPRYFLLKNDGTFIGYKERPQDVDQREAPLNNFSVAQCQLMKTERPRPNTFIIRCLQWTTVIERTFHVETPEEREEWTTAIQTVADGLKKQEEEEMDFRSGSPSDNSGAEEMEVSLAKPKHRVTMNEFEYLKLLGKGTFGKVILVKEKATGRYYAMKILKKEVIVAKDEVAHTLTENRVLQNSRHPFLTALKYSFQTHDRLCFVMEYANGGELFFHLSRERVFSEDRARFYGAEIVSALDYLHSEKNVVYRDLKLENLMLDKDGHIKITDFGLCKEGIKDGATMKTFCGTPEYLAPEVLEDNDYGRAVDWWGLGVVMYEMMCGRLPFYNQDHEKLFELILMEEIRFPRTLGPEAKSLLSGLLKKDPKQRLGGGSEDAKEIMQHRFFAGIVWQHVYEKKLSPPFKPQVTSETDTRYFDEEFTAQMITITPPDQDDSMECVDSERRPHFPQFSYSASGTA
# Protocol description: RBC HotSpot kinase assay (33P-ATP, P81 filter-binding), AKT
# Assay type: biochemical
# Reported conditions: Table 28, biochemical kinase assay; read-out: AKT IC50
Readout name: IC50 (nM)

• NCc1ccc(-c2ccnc3[nH]cc(-c4cccc(C(F)(F)F)c4)c23)cc1 = 3670
• c1cc(-c2ccc3c(c2)CCNC3)c2cc[nH]c2n1 = 308
• CN1CCC(c2ccc(-c3ccnc4[nH]cc(F)c34)cc2Cl)CC1 = 1520
• CCC1(c2ccc(-c3ccnc4[nH]cc(F)c34)cc2Cl)CCNCC1 = 463
• Fc1c[nH]c2nccc(-c3ccc(C4(c5nnco5)CCNCC4)cc3)c12 = 200
• Cc1cc(-c2ccnc3[nH]cc(F)c23)cc(Cl)c1[C@@]1(O)[C@H](C)CNC[C@@H]1C = 10.1

I. Cc1cc(-c2ccnc3[nH]cc(F)c23)ccc1[C@@]1(O)[C@H](C)CN(C2CCC2)C[C@@H]1C
II. NCc1ccc(-c2ccnc3[nH]cc(-c4ccccc4)c23)cc1-c1ccccc1
Record comparison, field IC50: mark the lower of I and II . Answer by quoting the chosen item's label. I

###

# Target entity: AKT (Homo sapiens)
# Protocol description: RBC HotSpot kinase assay (33P-ATP, P81 filter-binding), AKT
# Type: biochemical
# Reported conditions: Table 28, biochemical kinase assay; read-out: AKT IC50
pIC50: −log10 of the molar value.
Readout name: pIC50

Here are 5 compounds together with their reported answers.
• Cc1cc(-c2ccnc3[nH]cc(F)c23)ccc1[C@@]1(O)[C@H](C)CN(C(=O)CN)C[C@@H]1C = 7.31
• CCC(CC)Nc1cc(-c2ccnc3[nH]ccc23)ccc1CN = 6.10
• Fc1ccccc1CNCc1ccc(-c2ccnc3[nH]ccc23)cc1 = 5.84
• Cc1cc(-c2ccnc3[nH]cc(F)c23)ncc1[C@@]1(O)[C@H](C)CN(C)C[C@@H]1C = 5.79
• COC(=O)c1c[nH]c2nccc(-c3ccc(C4(O)C[C@H]5CC[C@@H](C4)N5)cc3)c12 (some centres unmarked) = 5.97

1. C[C@@H]1CN(C2COC2)C[C@H](C)[C@@]1(O)c1c(F)cc(-c2ccnc3[nH]cc(F)c23)cc1F
2. NCc1ccc(-c2ccnc3[nH]ccc23)nc1
Form field 'greater pIC50' accepts 1 or 2 ; which applies? Refer to your chosen item by its label in the answer. 1
(1: 5.93, 2: 5.31)

###

# Target entity: LATS1 (Homo sapiens)
# Sequence (O95835 whole entry): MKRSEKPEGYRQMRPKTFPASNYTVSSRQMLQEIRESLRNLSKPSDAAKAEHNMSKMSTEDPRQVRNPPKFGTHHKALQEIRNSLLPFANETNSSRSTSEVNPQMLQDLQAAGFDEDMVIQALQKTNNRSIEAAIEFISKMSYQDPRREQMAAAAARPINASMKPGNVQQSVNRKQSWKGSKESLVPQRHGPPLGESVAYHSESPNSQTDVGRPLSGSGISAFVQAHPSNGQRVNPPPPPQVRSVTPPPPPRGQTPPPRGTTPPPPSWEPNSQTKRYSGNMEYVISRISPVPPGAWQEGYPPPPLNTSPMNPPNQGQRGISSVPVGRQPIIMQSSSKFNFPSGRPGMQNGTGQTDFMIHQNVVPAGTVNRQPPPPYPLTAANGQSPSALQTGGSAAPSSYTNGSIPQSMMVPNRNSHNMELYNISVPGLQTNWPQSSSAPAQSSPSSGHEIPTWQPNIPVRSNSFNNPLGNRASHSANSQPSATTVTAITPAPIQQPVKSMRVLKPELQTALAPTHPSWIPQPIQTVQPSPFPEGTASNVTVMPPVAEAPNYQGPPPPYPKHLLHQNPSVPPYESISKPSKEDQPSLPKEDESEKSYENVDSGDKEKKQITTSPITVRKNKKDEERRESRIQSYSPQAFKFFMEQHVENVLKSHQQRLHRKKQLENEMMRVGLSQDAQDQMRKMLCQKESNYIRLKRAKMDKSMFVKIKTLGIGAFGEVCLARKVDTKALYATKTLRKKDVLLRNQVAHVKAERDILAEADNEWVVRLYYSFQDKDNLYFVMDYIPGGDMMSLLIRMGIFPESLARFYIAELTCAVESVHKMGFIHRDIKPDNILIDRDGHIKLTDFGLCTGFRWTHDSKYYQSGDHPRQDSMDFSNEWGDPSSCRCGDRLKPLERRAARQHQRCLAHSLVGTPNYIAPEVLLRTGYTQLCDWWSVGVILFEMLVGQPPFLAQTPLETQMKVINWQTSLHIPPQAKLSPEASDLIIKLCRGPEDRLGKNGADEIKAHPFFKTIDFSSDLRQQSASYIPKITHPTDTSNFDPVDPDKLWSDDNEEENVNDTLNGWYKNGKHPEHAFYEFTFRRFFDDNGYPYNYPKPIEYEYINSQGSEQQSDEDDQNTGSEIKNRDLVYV
# Protocol description: RBC HotSpot kinase assay (33P-ATP, P81 filter-binding), LATS1
# Type: biochemical
# Reported conditions: Table 28, biochemical kinase assay; read-out: LATS1 IC50
Readout name: IC50 (nM)

a. Cc1cc(-c2ccnc3[nH]cc(F)c23)ccc1CN
b. NCc1ccc(-c2c(Cl)cnc3[nH]ccc23)cc1
c. COc1ccc(-c2c[nH]c3nccc(-c4ccc(CN)cc4)c23)cc1
d. Cc1cc(-c2ccnc3[nH]ccc23)ccc1CN
Arrange by IC50, high to low. As an answer, provide the labels arranged in the order called for. b, c, d, a

###

# Target entity: AKT (Homo sapiens, UniProt P31749)
# Protocol description: RBC HotSpot kinase assay (33P-ATP, P81 filter-binding), AKT
# Format: biochemical
# Reported conditions: Table 28, biochemical kinase assay; read-out: AKT IC50
Readout name: IC50 (nM)

a. Cc1nc(-c2ccnc3[nH]cc(F)c23)ccc1[C@@]1(O)[C@H](C)CNC[C@@H]1C [Compound 10]
b. Cc1cc(-c2ccnc3[nH]cc(F)c23)cc(F)c1[C@@]1(O)[C@H](C)CN(C(=O)[C@@H]2CC(F)(F)CN2)C[C@@H]1C [Compound 64]
From the recorded data, which exceeds the other in IC50: a or b ? State the label of the item chosen. b
(b: 3140 nM, a: 1720 nM)

a. Cc1cc(-c2ccnc3[nH]cc(F)c23)cc(F)c1[C@@]1(O)[C@H](C)CN(C(=O)[C@@H]2C[C@H](O)CN2)C[C@@H]1C [Compound 70]
b. CC(C)(N)c1ccc(-c2ccnc3[nH]ccc23)cc1 [Compound 226]
Which value of IC50 is greater, the one for a or the one for b ? Field: selected label. Fill in the label of the entry you choose. b

I. Cc1cc(-c2ccnc3[nH]cc(F)c23)ccc1[C@@]1(O)[C@H](C)CN(C(C)C)C[C@@H]1C [Compound 29]
II. NCc1ccc(-c2cc(-c3ccnc4[nH]cc(F)c34)ccc2C2CCNCC2)cc1 [Compound 149]
Hi! Which is lower in terms of IC50, the first one I or the second one II ? Give the label under which the chosen entry appears. I
(I: 43.5 nM, II: 67.3 nM)

P. CC1CNCCC1(O)c1ccc(-c2ccnc3[nH]cc(F)c23)cc1Cl (centres unmarked) [Compound 99]
Q. COC(=O)c1c[nH]c2nccc(-c3ccc(C4(O)CCNCC4)c(Cl)c3)c12 [Compound 101]
R. NCc1ccc(-c2ccnc3[nH]cc(-c4ccccc4)c23)cc1 [Compound 253]
Task field, ranking: reported IC50, descending order. Labels, ranked as asked. Q, R, P

a. Cc1cc(-c2ccnc3[nH]cc(Cl)c23)cc(F)c1[C@@]1(O)[C@H](C)CNC[C@@H]1C [Compound 303]
b. NC(=O)c1ccc(-c2cc(-c3ccnc4[nH]ccc34)ccc2C2CCNCC2)cc1 [Compound 150]
Hey, between a and b which has a smaller measured IC50? Please reply using the label of the selected record. a
(a: 246 nM, b: 967 nM)

1. Fc1ccc(CNCc2ccc(-c3ccnc4[nH]ccc34)cc2Cl)cc1 [Compound 282]
2. CC(C)(O)C#Cc1cc(-c2ccnc3[nH]ccc23)ccc1CN [Compound 244]
// task: argmin of IC50 over [ 1 , 2 ] Mark your answer with the label of the selected entry. 2

a. NCc1ccc(-c2ccnc3[nH]ccc23)c(C(F)(F)F)c1 [Compound 286]
b. NCc1ccc(-c2c(F)cnc3[nH]ccc23)cc1 [Compound 273]
For the pair a and b , which member has the lower IC50 number? Response format: the label of the selected entry. b
(b: 1390 nM, a: 3410 nM)

###

# Target entity: LATS2 (Homo sapiens, UniProt Q9NRM7)
# Sequence (Q9NRM7 whole entry): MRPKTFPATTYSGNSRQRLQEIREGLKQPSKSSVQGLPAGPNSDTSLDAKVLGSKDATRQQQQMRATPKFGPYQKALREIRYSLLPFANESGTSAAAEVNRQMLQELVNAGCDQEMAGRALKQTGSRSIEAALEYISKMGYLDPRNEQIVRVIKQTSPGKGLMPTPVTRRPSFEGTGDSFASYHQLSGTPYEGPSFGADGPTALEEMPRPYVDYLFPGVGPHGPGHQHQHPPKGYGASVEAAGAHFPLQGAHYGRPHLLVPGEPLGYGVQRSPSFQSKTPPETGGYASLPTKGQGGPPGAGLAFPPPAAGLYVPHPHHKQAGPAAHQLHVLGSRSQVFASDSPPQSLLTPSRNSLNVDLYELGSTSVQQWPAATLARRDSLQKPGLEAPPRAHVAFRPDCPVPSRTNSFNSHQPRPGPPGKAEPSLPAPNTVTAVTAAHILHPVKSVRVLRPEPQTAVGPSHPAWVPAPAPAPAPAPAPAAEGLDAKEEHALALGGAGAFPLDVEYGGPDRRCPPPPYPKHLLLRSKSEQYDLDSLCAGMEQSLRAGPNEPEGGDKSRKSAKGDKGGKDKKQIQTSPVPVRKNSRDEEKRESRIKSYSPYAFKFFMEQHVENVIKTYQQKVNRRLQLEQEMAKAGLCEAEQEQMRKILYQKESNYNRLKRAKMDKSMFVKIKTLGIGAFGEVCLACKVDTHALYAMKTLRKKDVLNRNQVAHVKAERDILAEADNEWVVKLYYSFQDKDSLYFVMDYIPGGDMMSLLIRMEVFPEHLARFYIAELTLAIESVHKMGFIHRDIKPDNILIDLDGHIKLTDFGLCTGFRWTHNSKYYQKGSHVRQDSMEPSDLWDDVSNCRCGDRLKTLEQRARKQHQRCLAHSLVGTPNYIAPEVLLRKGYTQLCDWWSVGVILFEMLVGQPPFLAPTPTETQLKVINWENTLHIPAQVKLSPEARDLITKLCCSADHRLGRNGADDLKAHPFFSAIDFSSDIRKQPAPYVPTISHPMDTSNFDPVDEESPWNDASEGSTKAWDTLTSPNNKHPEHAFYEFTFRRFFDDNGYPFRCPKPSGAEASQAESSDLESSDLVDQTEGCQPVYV
# Protocol description: RBC HotSpot kinase assay (33P-ATP, P81 filter-binding), LATS2
# Format: biochemical
# Reported conditions: Table 28, biochemical kinase assay; read-out: LATS2 IC50
Readout name: IC50 (nM)

Solved entries (count: 3):
* C=C(C)c1c[nH]c2nccc(-c3ccc(CN)c(-c4ccccc4)c3)c12 | 35
* Cc1cc(C2CCNCC2)ccc1-c1ccnc2[nH]ccc12 | 2140
* CC1CC(c2ccc(-c3ccnc4[nH]ccc34)cc2)CC(C)N1 (stereo not drawn) | 62.6

A. C[C@@H]1CN(C(=O)[C@@H]2CCCN2)C[C@H](C)C1(O)c1c(F)cc(-c2ccnc3[nH]cc(F)c23)cc1F (stereo partly drawn)
B. CC(C)c1cc(-c2ccnc3[nH]cc(-c4ccccc4)c23)ccc1CN
Which is greater in IC50, the first item A or the second item B ? Answer = label. A
(A: 10.3 nM, B: 7 nM)

###

# Target entity: AKT Kinase-NanoLuc fusion in HEK-293 cells (Homo sapiens)
# Construct: host or cells: HEK-293
# Sequence (P31749 whole entry, the tested form may be a part): as the sequence (P31749 whole entry) above
# Protocol description: NanoBRET target engagement assay in transfected HEK-293 cells, AKT
# Type: cell-based
# Reported conditions: Table 28, NanoBRET, HEK-293 cells; read-out: AKT1 (Cellular) IC50
Readout name: IC50 (µM)

* Cc1cccc(-c2c[nH]c3nccc(-c4ccc(CN)cc4)c23)c1 | 0.752

I. C[C@@H]1CN(C)C[C@H](C)[C@@]1(O)c1cnc(-c2ccnc3[nH]cc(F)c23)cc1Cl
II. Cc1cc(-c2ccnc3[nH]cc(F)c23)ccc1[C@@]1(O)[C@H](C)CN(C2CCS(=O)(=O)CC2)C[C@@H]1C
Out of I and II , name the one with the higher IC50. Pick one and reply with its label. II

###

# Target entity: LATS2 (Homo sapiens, UniProt Q9NRM7)
# Protocol description: RBC HotSpot kinase assay (33P-ATP, P81 filter-binding), LATS2
# Type: biochemical
# Reported conditions: Table 28, biochemical kinase assay; read-out: LATS2 IC50
Readout name: IC50 (nM)

Please review the entries below; each comes with its answer.
* C[C@@H]1CNC[C@H](C)[C@@]1(O)c1ccc(-c2ccnc3[nH]cc(F)c23)nc1 [Compound 8] | 203
* OC1(c2ccc(-c3ccnc4[nH]cc(F)c34)cc2)CCNCC1 [Compound 110] | 2.9

I. Cc1cc(-c2ccnc3[nH]cc(F)c23)cc(F)c1[C@@]1(O)[C@H](C)CN(C(=O)CN(C)C)C[C@@H]1C [Compound 71]
II. OC1(c2ccc(-c3ccnc4[nH]cc(F)c34)cc2Cl)C2CNCC1C2 (centres unmarked) [Compound 102]
III. CN1CCC(O)(c2ccc(-c3ccnc4[nH]cc(F)c34)cc2)CC1 [Compound 131]
Ordering criterion: IC50; begin with the maximum. In plain terms: list the labels in the order you were asked to. II, III, I
